Tested target: hNK1R (Homo sapiens)
Construct: host or cells: COS-7
Sequence (P25103 whole entry): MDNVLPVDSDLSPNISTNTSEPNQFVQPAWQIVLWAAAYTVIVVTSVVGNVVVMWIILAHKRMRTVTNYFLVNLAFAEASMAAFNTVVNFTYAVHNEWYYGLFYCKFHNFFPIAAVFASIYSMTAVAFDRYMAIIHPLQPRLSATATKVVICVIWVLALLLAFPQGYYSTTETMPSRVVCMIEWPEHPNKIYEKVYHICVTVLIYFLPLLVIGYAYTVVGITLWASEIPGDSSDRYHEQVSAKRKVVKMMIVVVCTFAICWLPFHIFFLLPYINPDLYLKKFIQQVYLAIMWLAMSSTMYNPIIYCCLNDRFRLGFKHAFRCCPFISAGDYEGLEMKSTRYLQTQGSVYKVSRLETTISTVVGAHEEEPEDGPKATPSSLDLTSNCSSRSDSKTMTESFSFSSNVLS
Test details: IP3 assay (inositol trisphosphate, 3H-myoinositol) in transiently transfected COS-7 cells
Assay type: cell-based
Experimental context: COS-7 cells, 0.2% ovalbumin buffer
pEC50: −log10 of the molar value. Numbered stars: 1 amine (or outer) side, 2 acyl side, 3 side chain; on linkers, the order of the positions; unused ones are H or OH. Square brackets hold non-standard residues; d marks the D form. Peptide text beside a SMILES is read from it. * marks the point of attachment. C18 diacid = O=C(O)CCCCCCCCCCCCCCCCC(=O)*; γGlu = O=C(O)[C@H](CCC(=O)[*:2])N[*:1]; NMeL = CN[C@@H](CC(C)C)C(=O)O; hSer = N[C@@H](CCO)C(=O)O; AEEA = NCCOCCOCC(=O)O; Aib = CC(C)(N)C(=O)O
Measured endpoint: pEC50

1. COCC[C@H](NC(=O)[C@H](CC(C)C)N(C)C(=O)CNC(=O)[C@@H](NC(=O)[C@H](Cc1ccccc1)NC(=O)[C@H](CCCCN)NC(=O)[C@H](CC(=O)O)NC(=O)COCCOCCNC(=O)COCCOCCNC(=O)CC[C@H](NC(=O)CCCCCCCCCCCCCCCCC(=O)O)C(=O)O)[C@@H](C)O)C(N)=O [compound 383, *Asp;Lys;Phe;Thr;Gly;NmLeu;Metox;NH2] ({C18 diacid-γGlu-AEEA-AEEA}-DKFTG[NMeL][hSer](Me)-NH2) : 6.54
2. CSCC[C@H](NC(=O)[C@H](CC(C)C)N(C)C(=O)CNC(=O)[C@@H](NC(=O)[C@H](Cc1ccccc1)NC(=O)[C@H](CCCCNC(=O)COCCOCCNC(=O)COCCOCCNC(=O)CC[C@H](NC(=O)CCCCCCCCCCCCCCCCC(=O)O)C(=O)O)NC(=O)[C@H](CC(=O)O)NC(C)=O)C(C)C)C(N)=O : ~5.82
3. COCC[C@H](NC(=O)[C@H](CC(C)C)N(C)C(=O)CNC(=O)[C@@H](NC(=O)[C@H](Cc1ccc(O)cc1)NC(=O)[C@H](CCCCN)NC(=O)[C@H](CCC(=O)O)NC(=O)COCCOCCNC(=O)COCCOCCNC(=O)CC[C@H](NC(=O)CCCCCCCCCCCCCCCCC(=O)O)C(=O)O)C(C)C)C(N)=O [compound 382, *Glu;Lys;Tyr;Val;Gly;NmLeu;Metox;NH2] ({C18 diacid-γGlu-AEEA-AEEA}-EKYVG[NMeL][hSer](Me)-NH2) : ~5.42
4. COCC[C@H](NC(=O)[C@H](CC(C)C)NC(=O)C(C)(C)NC(=O)[C@@H](NC(=O)[C@H](Cc1ccc(O)cc1)NC(=O)[C@H](CCCCN)NC(=O)[C@H](CC(=O)O)NC(=O)COCCOCCNC(=O)COCCOCCNC(=O)CC[C@H](NC(=O)CCCCCCCCCCCCCCCCC(=O)O)C(=O)O)C(C)C)C(N)=O [compound 394, *Asp;Lys;Tyr;Val;Aib;Leu;Metox;NH2] ({C18 diacid-γGlu-AEEA-AEEA}-DKYV[Aib]L[hSer](Me)-NH2) : ~6.03
5. CCCC[C@H](NC(=O)[C@H](CC(C)C)N(C)C(=O)CNC(=O)[C@@H](NC(=O)[C@H](Cc1ccc(I)cc1)NC(=O)[C@H](CCCCN)NC(=O)[C@H](CC(=O)O)NC(=O)COCCOCCNC(=O)COCCOCCNC(=O)CC[C@H](NC(=O)CCCCCCCCCCCCCCCCC(=O)O)C(=O)O)C(C)C)C(N)=O : ~6.77

====

// reported EC50 for each item listed
Tested target: hNK3R (Homo sapiens, UniProt P29371)
Sequence (P29371 whole entry): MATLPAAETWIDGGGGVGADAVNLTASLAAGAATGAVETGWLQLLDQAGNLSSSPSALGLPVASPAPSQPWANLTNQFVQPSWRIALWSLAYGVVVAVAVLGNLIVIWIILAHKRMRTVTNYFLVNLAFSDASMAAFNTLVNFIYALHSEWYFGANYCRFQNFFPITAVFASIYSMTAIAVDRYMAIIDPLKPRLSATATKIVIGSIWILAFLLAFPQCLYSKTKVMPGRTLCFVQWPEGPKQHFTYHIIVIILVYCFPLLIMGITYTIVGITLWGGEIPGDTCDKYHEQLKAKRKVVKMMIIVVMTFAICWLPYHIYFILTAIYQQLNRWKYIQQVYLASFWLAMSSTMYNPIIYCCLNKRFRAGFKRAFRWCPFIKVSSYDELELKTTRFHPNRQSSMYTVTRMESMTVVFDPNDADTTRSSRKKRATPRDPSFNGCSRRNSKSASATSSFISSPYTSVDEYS
Test details: IP3 assay (inositol trisphosphate, 3H-myoinositol) in transiently transfected COS-7 cells
Experimental context: COS-7 cells, 0.2% ovalbumin buffer; read-out: hNK3, IP3 EC50
Measured endpoint: EC50 (nM)

1) CCCC[C@H](NC(=O)[C@H](CC(C)C)NC(=O)CNC(=O)[C@@H](NC(=O)[C@H](Cc1ccccc1)NC(=O)[C@H](CCCCN)NC(=O)[C@H](CC(=O)O)NC(=O)COCCOCCNC(=O)COCCOCCNC(=O)CC[C@H](NC(=O)CCCCCCCCCCCCCCCCC(=O)O)C(=O)O)C(C)C)C(N)=O : 35
2) CCCC[C@H](NC(=O)[C@H](CC(C)C)N(C)C(=O)CNC(=O)[C@@H](NC(=O)[C@H](Cc1ccccc1)NC(=O)[C@H](CO)NC(=O)[C@H](CC(=O)O)NC(=O)[C@@H](NC(=O)[C@H](CCCCN)NC(=O)COCCOCCNC(=O)COCCOCCNC(=O)CC[C@H](NC(=O)CCCCCCCCCCCCCCCCC(=O)O)C(=O)O)[C@@H](C)O)C(C)C)C(N)=O : 513

====

Tested target: hNK2R (Homo sapiens, UniProt P21452)
Construct: host or cells: COS-7
Sequence (P21452 whole entry): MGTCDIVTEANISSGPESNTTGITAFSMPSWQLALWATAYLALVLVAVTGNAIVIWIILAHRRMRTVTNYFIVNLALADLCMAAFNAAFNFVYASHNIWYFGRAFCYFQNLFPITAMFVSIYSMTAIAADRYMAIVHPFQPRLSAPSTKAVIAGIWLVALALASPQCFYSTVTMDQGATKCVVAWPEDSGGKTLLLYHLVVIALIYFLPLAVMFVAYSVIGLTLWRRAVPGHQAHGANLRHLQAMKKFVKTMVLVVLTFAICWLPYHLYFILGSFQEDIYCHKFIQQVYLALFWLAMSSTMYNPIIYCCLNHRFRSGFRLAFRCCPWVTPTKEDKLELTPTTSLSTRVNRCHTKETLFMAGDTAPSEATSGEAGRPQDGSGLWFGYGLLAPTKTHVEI
Test details: IP3 assay (inositol trisphosphate, 3H-myoinositol) in transiently transfected COS-7 cells
Format: cell-based
Experimental context: COS-7 cells; figure legends: percent of 10^-6 M NKA
Numbered stars: 1 amine (or outer) side, 2 acyl side, 3 side chain; on linkers, the order of the positions; unused ones are H or OH. Square brackets hold non-standard residues; d marks the D form. Peptide text beside a SMILES is read from it. * marks the point of attachment. C18 diacid = O=C(O)CCCCCCCCCCCCCCCCC(=O)*; Phe(4-F) = N[C@@H](Cc1ccc(F)cc1)C(=O)O; γGlu = O=C(O)[C@H](CCC(=O)[*:2])N[*:1]; NMeL = CN[C@@H](CC(C)C)C(=O)O; hSer = N[C@@H](CCO)C(=O)O; Nle = CCCC[C@H](N)C(=O)O; AEEA = NCCOCCOCC(=O)O
Parameter hNK2R, IP3 Efficacy: see the listing below.
Measured endpoint: hNK2R, IP3 Efficacy (%)

1. CSCC[C@H](NC(=O)[C@H](CC(C)C)N(C)C(=O)CNC(=O)[C@@H](NC(=O)[C@H](Cc1ccccc1)NC(=O)[C@H](CCCCNC(=O)COCCOCCNC(=O)COCCOCCNC(=O)CC[C@H](NC(=O)CCCCCCCCCCCCCCCCC(=O)O)C(=O)O)NC(=O)[C@H](CC(=O)O)NC(C)=O)C(C)C)C(N)=O : 63
2. CC(C)C[C@@H](C(=O)N[C@@H](Cc1ccccc1)C(N)=O)N(C)C(=O)CNC(=O)[C@@H](NC(=O)[C@H](Cc1ccc(O)cc1)NC(=O)[C@H](CCCCN)NC(=O)[C@H](CC(=O)O)NC(=O)COCCOCCNC(=O)COCCOCCNC(=O)CC[C@H](NC(=O)CCCCCCCCCCCCCCCCC(=O)O)C(=O)O)C(C)C [compound 353, *Asp;Lys;Tyr;Val;Gly;NmLeu;Phe;NH2] ({C18 diacid-γGlu-AEEA-AEEA}-DKYVG[NMeL]F-NH2) : 90
3. COCC[C@H](NC(=O)[C@H](CC(C)C)NC(=O)CNC(=O)[C@@H](NC(=O)[C@H](Cc1ccc(O)cc1)NC(=O)[C@H](CCCCN)NC(=O)[C@H](CC(=O)O)NC(=O)COCCOCCNC(=O)COCCOCCNC(=O)CC[C@H](NC(=O)CCCCCCCCCCCCCCCCC(=O)O)C(=O)O)C(C)C)C(N)=O [compound 393, *Asp;Lys;Tyr;Val;Gly;Leu;Metox;NH2] ({C18 diacid-γGlu-AEEA-AEEA}-DKYVGL[hSer](Me)-NH2) : 100
4. CCCC[C@H](NC(=O)[C@H](CC(C)C)NC(=O)[C@@H](CO)NC(=O)[C@@H](NC(=O)[C@H](Cc1ccccc1)NC(=O)[C@H](CCCCN)NC(=O)[C@H](CC(=O)O)NC(=O)COCCOCCNC(=O)COCCOCCNC(=O)CC[C@H](NC(=O)CCCCCCCCCCCCCCCCC(=O)O)C(=O)O)C(C)C)C(N)=O [compound 385, *Asp;Lys;Phe;Val;dSer;Leu;Nle;NH2] ({C18 diacid-γGlu-AEEA-AEEA}-DKFV[dS]L[Nle]-NH2) : 46
5. CC(C)C[C@@H](C(=O)N[C@@H](Cc1ccc(F)cc1)C(N)=O)N(C)C(=O)CNC(=O)[C@@H](NC(=O)[C@H](Cc1ccc(O)cc1)NC(=O)[C@H](CCCCN)NC(=O)[C@H](CC(=O)O)NC(=O)COCCOCCNC(=O)COCCOCCNC(=O)CC[C@H](NC(=O)CCCCCCCCCCCCCCCCC(=O)O)C(=O)O)C(C)C [compound 369, *Asp;Lys;Tyr;Val;Gly;NmLeu;4-F-Phe;NH2] ({C18 diacid-γGlu-AEEA-AEEA}-DKYVG[NMeL][Phe(4-F)]-NH2) : 90

====

Tested target: hNK2R (Homo sapiens, UniProt P21452)
Construct: host or cells: COS-7
Test details: Hithunter cAMP assay (Gs-coupling) in transfected COS-7 cells
Type: cell-based
Experimental context: COS-7 cells
Numbered stars: 1 amine (or outer) side, 2 acyl side, 3 side chain; on linkers, the order of the positions; unused ones are H or OH. Square brackets hold non-standard residues; d marks the D form. Peptide text beside a SMILES is read from it. * marks the point of attachment. C18 diacid = O=C(O)CCCCCCCCCCCCCCCCC(=O)*; γGlu = O=C(O)[C@H](CCC(=O)[*:2])N[*:1]; NMeL = CN[C@@H](CC(C)C)C(=O)O; hSer = N[C@@H](CCO)C(=O)O; AEEA = NCCOCCOCC(=O)O; Aib = CC(C)(N)C(=O)O
Recorded hNK2R, cAMP Efficacy by entry
Measured endpoint: hNK2R, cAMP Efficacy (%)

1. COCC[C@H](NC(=O)[C@H](CC(C)C)N(C)C(=O)CNC(=O)[C@@H](NC(=O)[C@H](Cc1ccc(O)cc1)NC(=O)[C@H](CCCCN)NC(=O)[C@H](CC(=O)O)NC(=O)COCCOCCNC(=O)COCCOCCNC(=O)CC[C@H](NC(=O)CCCCCCCCCCCCCCCCC(=O)O)C(=O)O)[C@@H](C)O)C(N)=O [compound 366, *Asp;Lys;Tyr;Thr;Gly;NmLeu;Metox;NH2] ({C18 diacid-γGlu-AEEA-AEEA}-DKYTG[NMeL][hSer](Me)-NH2) : 80
2. COCC[C@H](NC(=O)[C@H](CC(C)C)N(C)C(=O)CNC(=O)[C@@H](NC(=O)[C@H](Cc1ccccc1)NC(=O)[C@H](CCCCN)NC(=O)[C@H](CC(=O)O)NC(=O)COCCOCCNC(=O)COCCOCCNC(=O)CC[C@H](NC(=O)CCCCCCCCCCCCCCCCC(=O)O)C(=O)O)[C@@H](C)O)C(N)=O [compound 383, *Asp;Lys;Phe;Thr;Gly;NmLeu;Metox;NH2] ({C18 diacid-γGlu-AEEA-AEEA}-DKFTG[NMeL][hSer](Me)-NH2) : 89
3. COCC[C@H](NC(=O)[C@H](CC(C)C)NC(=O)C(C)(C)NC(=O)[C@@H](NC(=O)[C@H](Cc1ccc(O)cc1)NC(=O)[C@H](CCCCN)NC(=O)[C@H](CC(=O)O)NC(=O)COCCOCCNC(=O)COCCOCCNC(=O)CC[C@H](NC(=O)CCCCCCCCCCCCCCCCC(=O)O)C(=O)O)C(C)C)C(N)=O [compound 394, *Asp;Lys;Tyr;Val;Aib;Leu;Metox;NH2] ({C18 diacid-γGlu-AEEA-AEEA}-DKYV[Aib]L[hSer](Me)-NH2) : 100
